# Test system: myosin ATPase, Porcine Atria myofibrils
# experiment.summary: Myofibril ATPase assay, porcine atria myofibrils
# Type: biochemical
# reported.conditions: concentration required to reduce myosin ATP-ase activity by 25%; Porcine Atria Prep pCa 25 GEOM_MEAN
Think of 80 µM as a floor: if Porcine Atria EC25 (Y75 value) stands on it or above, it is MET; beneath it, NOT MET.

Task item: Porcine Atria EC25 (Y75 value) >= 80 µM for COc1cc2c(cc1OC)C(NC(=O)Cn1c(=O)[nH]c3ccccc3c1=O)CC2 (stereo not drawn) ?
Reply: MET

Task item: Answer whether Porcine Atria EC25 (Y75 value) of C[C@H](NC(=O)Cn1c(=O)[nH]c2ccc(F)cc2c1=O)c1ncc(C#N)cc1F (single isomer, unassigned) is greater than or equal to 80 µM.
Reply: NOT MET

Task item: Is the recorded value of Porcine Atria EC25 (Y75 value) equal to or greater than 80 µM for this molecule? C[C@@H](NC(=O)Cn1c(=O)[nH]c2ccc(F)cc2c1=O)c1ncc(C#N)cc1F (single isomer, unassigned)
Reply: NOT MET

Task item: Please check the record C[C@H](NC(=O)[C@@H](CC1CC1)n1c(=O)[nH]c2ccccc2c1=O)c1ncc(F)cc1F (single isomer, unassigned) and state if its Porcine Atria EC25 (Y75 value) is at or above 80 µM.
Reply: MET

Task item: Quick check: does COc1ccc([C@H](C)NC(=O)Cn2c(=O)[nH]c3ccccc3c2=O)cc1 (single isomer, unassigned) have Porcine Atria EC25 (Y75 value) greater than or equal to 80 µM?
Reply: MET

Task item: hey, is Porcine Atria EC25 (Y75 value) for this one >= 80 µM? C[C@@H](NC(=O)Cn1c(=O)[nH]c2ccc(F)c(F)c2c1=O)c1ccc(C#N)nn1 (single isomer, unassigned)
Reply: NOT MET

Task item: Say whether C[C@H](NC(=O)C(CO)n1c(=O)[nH]c2ccccc2c1=O)c1ccc(F)cc1F (single isomer, unassigned) shows Porcine Atria EC25 (Y75 value) of 80 µM or more.
Reply: NOT MET

Task item: Dear colleague, could you confirm whether O=C(Cn1c(=O)[nH]c2ccccc2c1=O)NC1CNC(=O)c2cc(F)cc(F)c21 (stereo not drawn) has Porcine Atria EC25 (Y75 value) at or above 80 µM?
Reply: MET

Task item: Check this molecule for Porcine Atria EC25 (Y75 value) at or above 80 µM: C[C@@H](NC(=O)Cn1c(=O)[nH]c2ccccc2c1=O)c1ccc(Cl)cc1 (single isomer, unassigned)
Reply: MET

Task item: Identify whether the reported Porcine Atria EC25 (Y75 value) of the following molecule is 80 µM or greater: COc1ccc([C@@H](C)NC(=O)Cn2c(=O)[nH]c3ccccc3c2=O)cc1 (single isomer, unassigned)
Reply: MET

Task item: Can O=C(Cn1c(=O)[nH]c2ccccc2c1=O)NC(c1ccc(Cl)cc1)c1cccs1 (stereo not drawn) be said to have Porcine Atria EC25 (Y75 value) at or above 80 µM?
Reply: MET

Task item: Evaluate Cc1nccc2[nH]c(=O)n(CC(=O)N[C@@H](C)c3ncc(C#N)cc3F)c(=O)c12 : Porcine Atria EC25 (Y75 value) at minimum 80 µM?
Reply: NOT MET

Task item: Hi team, for CCC(NC(=O)Cn1c(=O)[nH]c2ccccc2c1=O)c1ccc(F)cc1F (stereo not drawn) , is the recorded Porcine Atria EC25 (Y75 value) at or above 80 µM?
Reply: NOT MET

Task item: Tell me whether Porcine Atria EC25 (Y75 value) is at least 80 µM here: COc1ccc(F)cc1C(C)NC(=O)Cn1c(=O)[nH]c2ccccc2c1=O (stereo not drawn)
Reply: MET
